Recorded values, source ChEMBL document CHEMBL4118197.

- assay: Clearance in cynomolgus monkey at 1 mg/kg, iv
- Assay type: ADME, organism-based, Macaca fascicularis
- testConditions: in vivo
assayEndpoint: clearance

So for "CC1(C)OCCn2c1nc(C(=O)NCc1ccc(F)cc1)c(O)c2=O" , the logged clearance turned out to be 6.8 mL/min/kg

* * *

- assay: Protein binding in dog plasma
- Format: ADME, cell-free, Canis lupus familiaris
- testConditions: read-out: PPB (converted)
assayEndpoint: fraction unbound
Could you keep your reply to the number by itself?

// fraction unbound value for "CC1(C)OCCn2c1nc(C(=O)NCc1ccc(F)cc1)c(O)c2=O" : 0.015

* * *

- assay: Volume of distribution at steady state in Beagle dog at 1 mg/kg, iv
- Assay type: ADME, organism-based, Canis lupus familiaris
- testConditions: in vivo, read-out: Vdss
assayEndpoint: Vd (L/kg)
Write down the numeric answer in L/kg and omit the unit.

Input "CC1(C)OCCn2c1nc(C(=O)NCc1ccc(F)cc1)c(O)c2=O" . Output Vd: 0.45
